The reported numbers originate from patent US12209081B2.

tested.target: mouse TRPM3α2 (mTRPM3) ion channel (Mus musculus (Mouse))
protocol.description: TRPM3 ion channel driven Ca2+ uptake, Fluo-4 AM assay, mTRPM3alpha2 overexpressing flip-in HEK293 cells stimulated with pregnenolone sulfate
Format: cell-based
assay.context: PS (50 μM) stimulated, cpd 001-199
quantity: IC50

Tell me IC50 of Cc1oc2ccc(OCc3cccnc3C(F)(F)F)cc2c1C(=O)NC1CNCC1(F)F (single isomer, unassigned) when tested on mouse TRPM3α2 (mTRPM3) ion channel (Mus musculus (Mouse)).
< 1000 nM

Enter recorded IC50 with mouse TRPM3α2 (mTRPM3) ion channel (Mus musculus (Mouse)) for `Cc1oc2ccc(OCc3ccccn3)cc2c1C(=O)NC1(CO)CCOCC1` here.
< 1000 nM

State IC50 (mouse TRPM3α2 (mTRPM3) ion channel (Mus musculus (Mouse))) of Cc1ncsc1COc1ccc2oc(C)c(C(=O)NC3CCN(CC(F)(F)F)C3)c2c1 (single isomer, unassigned) .
< 1000 nM

Please indicate recorded IC50 of `Cc1ncsc1COc1ccc2oc(C)c(C(=O)NC3(CNCC(F)(F)F)CCC3)c2c1` measured with mouse TRPM3α2 (mTRPM3) ion channel (Mus musculus (Mouse)).
< 1000 nM

GET IC50 | system: mouse TRPM3α2 (mTRPM3) ion channel (Mus musculus (Mouse)) | item: Cc1ncsc1COc1ccc2oc(C)c(C(=O)NC3CCN(CCO)C3=O)c2c1 (single isomer, unassigned)
< 1000 nM

Output reported IC50 of the compound Cc1oc2ccc(OCc3cccnc3Cl)cc2c1C(=O)NC1CCNCC1(F)F (stereo not shown) on mouse TRPM3α2 (mTRPM3) ion channel (Mus musculus (Mouse)).
< 1000 nM

Provide IC50, recorded with mouse TRPM3α2 (mTRPM3) ion channel (Mus musculus (Mouse)), of Cc1oc2ccc(OCc3cccnc3C(F)(F)F)cc2c1C(=O)NC1CNCCC1(F)F (single isomer, unassigned)
< 1000 nM

Report IC50 on mouse TRPM3α2 (mTRPM3) ion channel (Mus musculus (Mouse)) for this entry: `Cc1noc(C)c1COc1ccc2oc(C)c(C(=O)O)c2c1`
> 20000 nM

Quote mouse TRPM3α2 (mTRPM3) ion channel (Mus musculus (Mouse)) IC50 for entry Cc1oc2ccc(OCc3ccc4nccn4c3)cc2c1C(=O)NC1CCNCC1(F)F (stereo not shown) .
< 1000 nM

Look up and report measured IC50 (mouse TRPM3α2 (mTRPM3) ion channel (Mus musculus (Mouse))) for the following compound: `Cc1oc2ccc(OCc3nc4ccccc4s3)cc2c1C(=O)O`
> 20000 nM

Would you please give the reported IC50 of Cc1ncsc1COc1ccc2oc(C)c(C(=O)NC3CCNCC3(F)F)c2c1 (stereo not shown) with mouse TRPM3α2 (mTRPM3) ion channel (Mus musculus (Mouse))?
< 1000 nM

Give mouse TRPM3α2 (mTRPM3) ion channel (Mus musculus (Mouse)) IC50 for the following compound: Cc1oc2ccc(OCc3cccnc3C(F)(F)F)cc2c1C(=O)OCC1(N)CCOC1 (stereo not shown)
< 1000 nM

Provide IC50, recorded with mouse TRPM3α2 (mTRPM3) ion channel (Mus musculus (Mouse)), of `Cc1oc2ccc(OCc3cccnc3C(F)(F)F)cc2c1C(=O)NC1(CCO)CCC1`
< 1000 nM

# return IC50 for Cc1oc2ccc(OCC3CCN(C(=O)OC(C)(C)C)C3)cc2c1C(=O)O (stereo not shown) , test system: mouse TRPM3α2 (mTRPM3) ion channel (Mus musculus (Mouse))
> 20000 nM

System mouse TRPM3α2 (mTRPM3) ion channel (Mus musculus (Mouse)). Read-out IC50. Item Cc1cc2oc(C)c(C(=O)NC3CCNCC3(F)F)c2cc1OCc1cccnc1C(F)(F)F (single isomer, unassigned) [179-En 1] . Report value.
1000 to 20000 nM

Please respond with reported IC50 (system mouse TRPM3α2 (mTRPM3) ion channel (Mus musculus (Mouse))) for `Cc1oc2ccc(OCc3cccnc3C(F)(F)F)cc2c1C(=O)NC1(CN)CCC1` .
< 1000 nM

Give mouse TRPM3α2 (mTRPM3) ion channel (Mus musculus (Mouse)) IC50 for the following compound: `Cc1oc2ccc(OCc3cccnc3C(F)(F)F)cc2c1C(=O)N[C@@H]1CN(C(=O)OCC(F)(F)F)CC1(F)F`
< 1000 nM

Please report IC50 with mouse TRPM3α2 (mTRPM3) ion channel (Mus musculus (Mouse)) for item Cc1ncsc1COc1ccc2oc(C)c(C(=O)NC3CNCC3(F)F)c2c1 (single isomer, unassigned) .
< 1000 nM

# return IC50 for `Cc1ncsc1COc1ccc2oc(C)c(C(=O)NC(C)(C)CO)c2c1` , test system: mouse TRPM3α2 (mTRPM3) ion channel (Mus musculus (Mouse))
< 1000 nM

Print mouse TRPM3α2 (mTRPM3) ion channel (Mus musculus (Mouse)) IC50 for `Cc1oc2ccc(OCc3cccs3)cc2c1C(=O)NC1CCN(C)CC1` .
< 1000 nM

Name the recorded IC50 of `Cc1ncsc1COc1ccc2oc(C)c(C(=O)NC3(CCO)COC3)c2c1` , assay system mouse TRPM3α2 (mTRPM3) ion channel (Mus musculus (Mouse)).
< 1000 nM

# return IC50 of Cc1oc2ccc(OCc3cccnc3C(F)(F)F)cc2c1C(=O)NC1CCNC1=O (stereo not shown) (system: mouse TRPM3α2 (mTRPM3) ion channel (Mus musculus (Mouse)))
< 1000 nM

====

tested.target: mouse TRPM3α2 (mTRPM3) ion channel (Mus musculus (Mouse))
protocol.description: TRPM3 ion channel driven Ca2+ uptake, Fluo-4 AM assay, mTRPM3alpha2 overexpressing flip-in HEK293 cells stimulated with pregnenolone sulfate
Format: cell-based
assay.context: PS (50 μM) stimulated, cpds. 608-666
quantity: IC50

With mouse TRPM3α2 (mTRPM3) ion channel (Mus musculus (Mouse)) as the test system, provide measured IC50 for this compound: Cc1ncsc1COc1ccc2oc(C)c(C(=O)N(CCO)C3CCC3)c2c1 [compound 660]
> 20000 nM

Jot down IC50 (mouse TRPM3α2 (mTRPM3) ion channel (Mus musculus (Mouse))) of Cc1oc2ccc(OCc3cccnc3O)cc2c1C(=O)NC1COCC1(F)F (single isomer, unassigned) [cpd 648-En 1] .
< 1000 nM

// output IC50; input Cc1oc2ccc(OCc3ccnn3C)cc2c1C(=O)NC1CNCCC1(F)F (single isomer, unassigned) [cpd 636-En 1] ; system mouse TRPM3α2 (mTRPM3) ion channel (Mus musculus (Mouse))
< 1000 nM

====

tested.target: mouse TRPM3α2 (mTRPM3) ion channel (Mus musculus (Mouse), UniProt J9SQF3)
Sequence (J9SQF3 other isoform, or with tags, fused parts or gaps): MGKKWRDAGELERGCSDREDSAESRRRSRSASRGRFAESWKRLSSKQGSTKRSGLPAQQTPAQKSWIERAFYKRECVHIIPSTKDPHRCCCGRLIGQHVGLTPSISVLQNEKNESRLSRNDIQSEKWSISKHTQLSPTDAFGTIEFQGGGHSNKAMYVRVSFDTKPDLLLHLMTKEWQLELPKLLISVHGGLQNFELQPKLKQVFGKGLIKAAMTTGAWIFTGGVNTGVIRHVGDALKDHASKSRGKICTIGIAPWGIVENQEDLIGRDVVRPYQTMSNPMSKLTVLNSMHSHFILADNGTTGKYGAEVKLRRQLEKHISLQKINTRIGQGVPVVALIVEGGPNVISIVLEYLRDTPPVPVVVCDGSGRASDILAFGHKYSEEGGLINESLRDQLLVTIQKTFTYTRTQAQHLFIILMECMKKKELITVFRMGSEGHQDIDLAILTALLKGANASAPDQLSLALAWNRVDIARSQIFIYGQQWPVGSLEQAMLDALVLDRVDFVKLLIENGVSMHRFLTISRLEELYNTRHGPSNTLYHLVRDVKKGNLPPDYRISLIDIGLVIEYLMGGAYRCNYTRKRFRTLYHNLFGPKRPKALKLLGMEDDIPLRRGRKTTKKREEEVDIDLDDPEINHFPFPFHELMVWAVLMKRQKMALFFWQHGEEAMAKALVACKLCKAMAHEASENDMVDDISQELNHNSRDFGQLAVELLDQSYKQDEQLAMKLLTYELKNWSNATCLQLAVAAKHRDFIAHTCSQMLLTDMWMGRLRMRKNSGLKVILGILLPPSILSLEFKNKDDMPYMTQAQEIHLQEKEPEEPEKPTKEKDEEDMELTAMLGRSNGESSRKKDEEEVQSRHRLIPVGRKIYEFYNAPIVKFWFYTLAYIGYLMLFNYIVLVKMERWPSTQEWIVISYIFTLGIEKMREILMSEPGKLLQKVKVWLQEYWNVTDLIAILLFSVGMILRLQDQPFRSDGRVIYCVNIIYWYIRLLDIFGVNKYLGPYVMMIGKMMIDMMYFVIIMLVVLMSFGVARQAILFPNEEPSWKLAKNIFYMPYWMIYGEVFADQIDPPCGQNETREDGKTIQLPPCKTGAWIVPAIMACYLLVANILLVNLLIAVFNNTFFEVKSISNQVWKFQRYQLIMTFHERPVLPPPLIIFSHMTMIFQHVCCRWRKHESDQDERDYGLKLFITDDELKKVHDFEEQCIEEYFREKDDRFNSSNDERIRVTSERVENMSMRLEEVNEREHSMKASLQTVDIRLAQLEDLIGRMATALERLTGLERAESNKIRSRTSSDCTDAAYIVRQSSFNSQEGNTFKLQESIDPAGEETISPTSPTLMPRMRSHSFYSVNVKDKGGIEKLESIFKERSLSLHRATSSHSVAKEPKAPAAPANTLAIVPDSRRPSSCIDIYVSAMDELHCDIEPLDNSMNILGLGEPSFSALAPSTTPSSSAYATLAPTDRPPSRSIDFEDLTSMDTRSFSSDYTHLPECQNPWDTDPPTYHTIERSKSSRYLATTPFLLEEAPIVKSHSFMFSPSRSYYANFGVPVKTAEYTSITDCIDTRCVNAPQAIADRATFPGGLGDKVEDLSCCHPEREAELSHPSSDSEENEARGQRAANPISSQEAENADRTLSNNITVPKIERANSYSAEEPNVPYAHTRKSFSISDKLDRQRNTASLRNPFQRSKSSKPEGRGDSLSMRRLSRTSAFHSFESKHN
protocol.description: TRPM3 ion channel driven Ca2+ uptake, Fluo-4 AM assay, mTRPM3alpha2 overexpressing flip-in HEK293 cells stimulated with pregnenolone sulfate
Assay type: cell-based
assay.context: PS (50 μM) stimulated, cpds. 608-666
quantity: IC50

Lab note: record IC50 of Cc1ncc(COc2ccc3oc(C)c(C(=O)NC4(CO)CCOCC4)c3c2)s1 [compound 613] tested on mouse TRPM3α2 (mTRPM3) ion channel (Mus musculus (Mouse), UniProt J9SQF3).
< 1000 nM

Provide IC50, recorded with mouse TRPM3α2 (mTRPM3) ion channel (Mus musculus (Mouse), UniProt J9SQF3), of Cc1oc2ccc(OCc3cccc(O)n3)cc2c1C(=O)NC1(CO)CCOCC1 [compound 630]
> 20000 nM

# return IC50 for Cc1ncsc1COc1ccc2oc(C)c(C(=O)N(C)C3(CO)CCOCC3)c2c1 [compound 634] , test system: mouse TRPM3α2 (mTRPM3) ion channel (Mus musculus (Mouse), UniProt J9SQF3)
< 1000 nM

Tell me IC50 of Cc1oc2ccc(OCc3cnnn3C)cc2c1C(=O)NC1(CO)CCOCC1 [compound 605] when tested on mouse TRPM3α2 (mTRPM3) ion channel (Mus musculus (Mouse), UniProt J9SQF3).
> 20000 nM

Name the value of IC50 reported for Cc1oc2ccc(OCc3cccnc3C(F)(F)F)cc2c1C(=O)NC(C)(C)CCO [compound 651] when tested on mouse TRPM3α2 (mTRPM3) ion channel (Mus musculus (Mouse), UniProt J9SQF3).
< 1000 nM

Given Cc1ncsc1COc1ccc2oc(C)c(C(=O)NC3CCCCNC3=O)c2c1 (single isomer, unassigned) [cpd 661-En 1] , report its IC50 on mouse TRPM3α2 (mTRPM3) ion channel (Mus musculus (Mouse), UniProt J9SQF3).
< 1000 nM

Identify measured IC50 obtained with mouse TRPM3α2 (mTRPM3) ion channel (Mus musculus (Mouse), UniProt J9SQF3) for Cc1oc2ccc(OCc3cccnn3)cc2c1C(=O)NC1(CO)CCOCC1 [compound 624] .
< 1000 nM

Please look at Cc1ncsc1COc1ccc2oc(C(N)=O)c(C(=O)NC3(CO)CCOCC3)c2c1 [compound 658] and tell me its recorded IC50 on mouse TRPM3α2 (mTRPM3) ion channel (Mus musculus (Mouse), UniProt J9SQF3).
> 20000 nM

Lab note: record IC50 of Cc1ncccc1COc1ccc2oc(C)c(C(=O)NC3(CO)CCOCC3)c2c1 [compound 611] tested on mouse TRPM3α2 (mTRPM3) ion channel (Mus musculus (Mouse), UniProt J9SQF3).
< 1000 nM

Return reported IC50 for target or system mouse TRPM3α2 (mTRPM3) ion channel (Mus musculus (Mouse), UniProt J9SQF3), item Cc1oc2ccc(OCc3ccc(O)nc3)cc2c1C(=O)NC1(CO)CCOCC1 [compound 631] .
> 20000 nM

With mouse TRPM3α2 (mTRPM3) ion channel (Mus musculus (Mouse), UniProt J9SQF3) as the test system, provide measured IC50 for this molecule: COc1ncccc1COc1ccc2oc(C)c(C(=O)NC3CNCC3(F)F)c2c1 (centres unmarked) [compound 663]
< 1000 nM

State IC50 on mouse TRPM3α2 (mTRPM3) ion channel (Mus musculus (Mouse), UniProt J9SQF3). Entry: Cc1ncsc1COc1ccc2oc(C)c(C(=O)NCC(C)(C)CO)c2c1 [compound 602]
< 1000 nM

Quote IC50 with test system mouse TRPM3α2 (mTRPM3) ion channel (Mus musculus (Mouse), UniProt J9SQF3) for Cc1ncsc1COc1ccc2oc(C)c(C(=O)NC3COCC3(F)F)c2c1 (single isomer, unassigned) [cpd 646-En 1]
< 1000 nM

Using mouse TRPM3α2 (mTRPM3) ion channel (Mus musculus (Mouse), UniProt J9SQF3) as the test system, report measured IC50 of Cc1cnc(COc2ccc3oc(C)c(C(=O)NC4(CO)CCOCC4)c3c2)s1 [compound 620] .
< 1000 nM

Answer briefly: IC50 recorded on mouse TRPM3α2 (mTRPM3) ion channel (Mus musculus (Mouse), UniProt J9SQF3) for Cc1ncsc1COc1ccc2oc(C)c(C(=O)NC3(C(N)=O)CCOCC3)c2c1 [compound 650]
< 1000 nM

GET IC50 where system = mouse TRPM3α2 (mTRPM3) ion channel (Mus musculus (Mouse), UniProt J9SQF3) and item = Cc1oc2ccc(OCc3cccnc3)cc2c1C(=O)NC1(CO)CCOCC1 [compound 625]
< 1000 nM

Lab note: mouse TRPM3α2 (mTRPM3) ion channel (Mus musculus (Mouse), UniProt J9SQF3) assay, enter IC50 for Cc1oc2ccc(OCc3cccnc3)cc2c1C(=O)NC(CO)C(N)=O (centres unmarked) [compound 662] here
< 1000 nM
